Consider the following sequences and their measured shrunken log2 fold change readings.
Test system: Escherichia coli TOP10;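 also: peptides expressed intracellularly from a pBAD plasmid library in pooled LB shake-flask culture, induced with 0.3% L-arabinose, DNA abundance read by NGS, three biological replicates, DESeq2 with apeglm shrinkage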
Test: shrunken log2 fold change of peptide-encoding DNA abundance (4.5 h post-induction vs induction); higher = less antimicrobial activity (less host growth inhibition)
Conditions: time post-induction: 4.5 h; library: site-saturation at positions 5, 18, 19, 20
I'd appreciate a reply containing only the number, no unit.

                  residues  test_value
0  RRIRERPPRLPRPRPRPNGVPRP        -0.2
1  RRIRFRPPRLPRPRPRPCMWPRP      -0.258
2  RRIRVRPPRLPRPRPRPVTSPRP      -0.558

Just so you know, measured shrunken log2 fold change for RRIRPRPPRLPRPRPRPMITPRP came out at -0.407

Measured shrunken log2 fold change, RRIRNRPPRLPRPRPRPMVWPRP : -0.03

Notebook: RRIRTRPPRLPRPRPRPQAGPRP , shrunken log2 fold change read as 0.107

The sequence listed as RRIRQRPPRLPRPRPRPWKQPRP shows shrunken log2 fold change equal to -0.08

// RRIRQRPPRLPRPRPRPKYLPRP : shrunken log2 fold change value = -0.0386

Field shrunken log2 fold change (entry RRIRERPPRLPRPRPRPVKSPRP ) reads -0.155

Given item RRIRKRPPRLPRPRPRPQPDPRP , the value recorded as its shrunken log2 fold change is 0.459

Lab note: measured shrunken log2 fold change of RRIRWRPPRLPRPRPRPTHIPRP was -0.067

Short answer for RRIRARPPRLPRPRPRPHSHPRP : shrunken log2 fold change was 0.144
